System: Daoy
testDetails: MTT cytotoxicity assay, Daoy
Assay type: cell-based, human
conditionInfo: Homo sapiens, Daoy; 50 µM, 72 h, MTT; read-out: % Cytotoxicity (50 µM) DAOY
For each of the molecules below, state its cytotoxicity at 50 µM.

Example cases with answers are listed next.
- CCCCCn1cnc2c(-c3ccc(OC(F)(F)F)cc3)nc(N3CCN(c4ccc(OC)cc4)CC3)nc21 [Compound 4p]: < 50%
- CCCCCCn1cnc2c(-c3ccc(OC(F)(F)F)cc3)nc(N3CCN(c4ccc(OC)cc4)CC3)nc21 [Compound 4q]: < 50%
- CCCCCCn1cnc2c(-c3ccc(OC(F)(F)F)cc3)nc(N3CCN(c4ccncc4)CC3)nc21 [Compound 4s]: 98%
- CCCCCCn1cnc2c(-c3ccc(OC(F)(F)F)cc3)nc(N3CCN(c4ccc([N+](=O)[O-])cc4)CC3)nc21 [Compound 4o]: < 50%
- CCCCn1cnc2c(-c3ccc(OC(F)(F)F)cc3)nc(NCC3CCCCC3)nc21 [Compound 4g]: < 50%

Give cytotoxicity at 50 µM for all molecules that follow.
1. CCCCCn1cnc2c(-c3ccc(OC(F)(F)F)cc3)nc(N3CCN(c4ccccc4)CC3)nc21 [Compound 4j]
2. CCCCCCn1cnc2c(-c3ccc(OC(F)(F)F)cc3)nc(NCC3CCCCC3)nc21 [Compound 4i]
3. CCCCn1cnc2c(-c3ccc(OC(F)(F)F)cc3)nc(NC3CCCC3)nc21 [Compound 4a]

Marked response:
< 50%
< 50%
82%

---

testDetails: MTT cytotoxicity assay, HEK293 control cells
Format: cell-based, human
conditionInfo: human, HEK293 cells; 50 µM, 72 h, MTT
For each of the compounds below, state its cytotoxicity at 72 h, 50 µM.

Example cases with answers are listed next.
* CCCCn1cnc2c(-c3ccc(OC(F)(F)F)cc3)nc(NC3CCCC3)nc21 [Compound 4a] | < 50%
* CCCCCn1cnc2c(-c3ccc(OC(F)(F)F)cc3)nc(NCC3CCCCC3)nc21 [Compound 4h] | < 50%
* CCCCCn1cnc2c(-c3ccc(OC(F)(F)F)cc3)nc(N3CCN(c4ccc(Cl)cc4)CC3)nc21 [Compound 4l] | < 50%
* CCCCCCn1cnc2c(-c3ccc(OC(F)(F)F)cc3)nc(N3CCN(c4ccncc4)CC3)nc21 [Compound 4s] | < 50%
* COc1cc([C@@H]2c3cc4c(cc3[C@@H](O[C@@H]3O[C@@H]5CO[C@@H](C)O[C@H]5[C@H](O)[C@H]3O)[C@H]3COC(=O)[C@H]23)OCO4)cc(OC)c1O [Etoposide, reference compound] | 65%

Now let's try a different one.
Exam item: In one line, give reported cytotoxicity at 72 h, 50 µM of the entry CCCCCn1cnc2c(-c3ccc(OC(F)(F)F)cc3)nc(N3CCN(c4ccncc4)CC3)nc21 [Compound 4r] .
Marked response: < 50%

---

Test system: Daoy
testDetails: MTT cytotoxicity assay, Daoy;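 also: viability read as formazan absorbance at 570 nm after MTT reduction, three independent biological replicates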
Type: cell-based, human
conditionInfo: Homo sapiens, Daoy, 72 h, read-out: % Cytotoxicity (50 µM) DAOY
resultType: cytotoxicity at 50 µM (%)
Numbers only, in %.

• CCCCCCn1cnc2c(-c3ccc(OC(F)(F)F)cc3)nc(NC3CCCC3)nc21 = 69
• CCCCCn1cnc2c(-c3ccc(OC(F)(F)F)cc3)nc(NCC3CCCCC3)nc21 = 81

Now let's try a different one.
Exam item: In one line, give reported cytotoxicity at 50 µM of the entry CCCCCn1cnc2c(-c3ccc(OC(F)(F)F)cc3)nc(NC3CCCC3)nc21 .
Marked response: 94
